# measurement_notes: chemical genetic growth profiling, strain panel (AID 1159580);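 also: tested at 20 µM; growth read once vehicle control cultures reached saturation at 30 °C; 1 = growth at the plate median or of vehicle wells; lower values mean less growth of the strain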
# test_context: S. cerevisiae deletion strains, growth OD, locus YAL013W, strain DEP1, active compounds read low
Among all 5,500 compounds or so, about 2,000 (36%) were called active. Inconclusive results (about 18%) are left out. The list shows a part of the results.
Decide using normalized growth alone. Strictly below 1: Yes. Equal to or above 1: No.

Study these solved cases before continuing.
CC(=O)Oc1ccc(O)cc1    Yes
Cc1ccc(-c2nn[nH]n2)cc1Cl    Yes
N#CC(c1ccccc1)N1CCCCC1 (stereo unspecified)    No

Q) Please state whether normalized growth is below 1 for CC1=CC(=O)c2ccccc2C1=O
A) Yes

Q) Please state whether normalized growth is below 1 for COc1ccc2cc(CCC(C)=O)ccc2c1
A) Yes

----------
# measurement_notes: chemical genetic growth profiling, strain panel (AID 1159580)
# test_context: S. cerevisiae deletion strains, growth OD, locus YLR384C, strain iki3, active compounds read low
The campaign covered roughly 5,500 compounds. About 2,000 (36%) were called active. About 18% were inconclusive and are not listed. The list shows a part of the results.
Recorded normalized growth, one value per entry.
Field format: numeric only.

Q) GET /values?readout=normalized growth&item= Cc1cc(=O)oc2cc(O)c(O)cc12
A) 0.993

----------
# measurement_notes: chemical genetic growth profiling, strain panel (AID 1159580)
# test_context: S. cerevisiae deletion strains, growth OD, locus YGL078C, strain dbp3, active compounds read low
Screen size: about 5,500 compounds; about 2,000 (36%) were called active. Not shown: some 18% with an inconclusive outcome. The list shows a part of the results.
Recorded normalized growth, one value per entry.
Field format: numeric only.

Worked cases, answers included:
CN(C)CCCN1c2ccccc2CCc2ccc(Cl)cc21    0.989
CN(C)CCCN1c2ccccc2Sc2ccc(C(F)(F)F)cc21    0.985
Nc1ccc(S(=O)(=O)NC(=O)c2ccccc2)cc1    1.02
CS(=O)(=O)c1ccc([C@@H](O)[C@@H](CO)NC(=O)C(Cl)Cl)cc1    1
COc1ccc2cc(CCC(C)=O)ccc2c1    0.921
CN(C)CCCN1c2ccccc2Sc2ccccc21    1.01
O=C1NC(O)=NC1(c1ccccc1)c1ccccc1    1.01
O=C(O)c1ccc(S(=O)(=O)N(Cl)Cl)cc1    1.03

Q) GET /values?readout=normalized growth&item= CO[C@H]1CC(O[C@@H]2/C(C)=C/C[C@@H]3C[C@@H](C[C@]4(CC[C@H](C)[C@@H](C5CCCCC5)O4)O3)OC(=O)[C@@H]3C=C(C)/C(=N\O)[C@H]4OC/C(=C\C=C\[C@@H]2C)[C@]43O)O[C@@H](C)C1O (stereo not given in full)
A) 0.975

Q) GET /values?readout=normalized growth&item= Cc1cc(=O)oc2cc(O)c(O)cc12
A) 0.959

Q) GET /values?readout=normalized growth&item= CCC(C)[C@H]1O[C@]2(C=C[C@@H]1C)C[C@@H]1C[C@@H](C/C=C(\C)[C@@H](OC3C[C@H](OC)C(O[C@H]4C[C@H](OC)[C@@H](O)[C@H](C)O4)[C@H](C)O3)[C@@H](C)/C=C/C=C3\CO[C@@H]4[C@H](O)C(C)=C[C@@H](C(=O)O1)[C@]34O)O2 (stereo not given in full)
A) 1.01

Q) GET /values?readout=normalized growth&item= O=C(NCO)c1cccnc1
A) 0.979

Q) GET /values?readout=normalized growth&item= CCCN(CCC)S(=O)(=O)c1ccc(C(=O)O)cc1
A) 1.01

Q) GET /values?readout=normalized growth&item= CN(C)CCCN1c2ccccc2CCc2ccccc21
A) 0.972

Q) GET /values?readout=normalized growth&item= CCOC(=O)NNc1nncc2ccccc12
A) 0.98

----------
# measurement_notes: chemical genetic growth profiling, strain panel (AID 1159580);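 also: tested at 20 µM; growth read once vehicle control cultures reached saturation at 30 °C; 1 = growth at the plate median or of vehicle wells; lower values mean less growth of the strain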
# test_context: S. cerevisiae deletion strains, growth OD, locus YKL009W, strain mrt4
Among all 5,500 compounds or so, about 2,000 (36%) were called active. Inconclusive results (about 18%) are left out. Rule as the data show it: active = normalized growth mostly below about 0.91 (no sharp cut-off); inconclusive = no clear call, values can overlap the other calls; inactive = mostly above about 0.92. Some of the results follow.
The categories you may choose from are true for active, false for inactive

Study these solved cases before continuing.
CC(=O)OC1CCC2(C)C(CC(OC(C)=O)C3(C)C4=CC(=O)OC(c5ccoc5)C4(C)CCC23)C1(C)C (stereo not given)    false
Oc1cccc(O)c1    false
CC(Cc1cccc(C(F)(F)F)c1)NCCOC(=O)c1ccccc1 (stereo not given)    false
NCCCCCCNS(=O)(=O)c1cccc2c(Cl)cccc12    false

Q) Hi, do you know how CCN1CCN(C(=O)NC(C(=O)N[C@@H]2C(=O)N3[C@@H]2SC(C)(C)[C@@H]3C(=O)O)c2ccccc2)C(=O)C1=O (stereo not given in full) came out in this test?
A) false

Q) Hi, do you know how OC[C@H]1O[C@@H](O[C@H]2[C@H](O)[C@@H](O)[C@@H](O)O[C@@H]2CO)[C@H](O)[C@@H](O)[C@@H]1O came out in this test?
A) false

Q) Hi, do you know how CNNC came out in this test?
A) false

Q) Hi, do you know how CC(=O)O[C@@H]1C=C[C@@]2(C)C(C[C@@H](OC(C)=O)[C@@]3(C)C4=CC(=O)O[C@@H](c5ccoc5)[C@]4(C)CCC23)C1(C)C (stereo not given in full) came out in this test?
A) true

Q) Hi, do you know how CCCc1cc(=O)[nH]c(=S)[nH]1 came out in this test?
A) false

Q) Hi, do you know how O=C(O)c1cccnc1 came out in this test?
A) false

Q) Hi, do you know how CC(=O)O[C@@H]1CC[C@@]2(C)C(C[C@@H](OC(C)=O)[C@@]3(C)C4=CC(=O)O[C@@H](c5ccoc5)[C@]4(C)CCC23)C1(C)C (stereo not given in full) came out in this test?
A) false

Q) Hi, do you know how CCCN(CCC)S(=O)(=O)c1ccc(C(=O)O)cc1 came out in this test?
A) false

Q) Hi, do you know how N[C@@H](CCC(=O)N[C@@H](CS)C(=O)NCC(=O)O)C(=O)O came out in this test?
A) false

Q) Hi, do you know how CCCc1c(OCCCCc2nn[nH]n2)ccc(C(C)=O)c1O came out in this test?
A) false

Q) Hi, do you know how CNCCCC12CCC(c3ccccc31)c1ccccc12 came out in this test?
A) false

Q) Hi, do you know how OC[C@H]1O[C@@](CO)(O[C@@H]2O[C@H](CO)[C@@H](O)[C@H](O)[C@H]2O)[C@@H](O[C@@H]2O[C@H](CO)[C@@H](O)[C@H](O)[C@H]2O)[C@@H]1O came out in this test?
A) false

Q) Hi, do you know how OC[C@H]1O[C@@H](O[C@@H]2[C@@H](CO)O[C@](O)(CO)[C@H]2O)[C@H](O)[C@@H](O)[C@H]1O came out in this test?
A) false

Q) Hi, do you know how NNCc1cccc(O)c1 came out in this test?
A) false

Q) Hi, do you know how CC(C)CC1NC(=O)CNC1=O (stereo not given) came out in this test?
A) false

Q) Hi, do you know how CC(=O)O[C@H]1CC[C@@]2(C)C(C[C@@H](OC(C)=O)[C@@]3(C)C4=CC(=O)O[C@@H](c5ccoc5)[C@]4(C)CCC23)C1(C)C (stereo not given in full) came out in this test?
A) true

----------
Recorded normalized growth, one value per entry.
# measurement_notes: chemical genetic growth profiling, strain panel (AID 1159580);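 also: tested at 20 µM; growth read once vehicle control cultures reached saturation at 30 °C; 1 = growth at the plate median or of vehicle wells; lower values mean less growth of the strain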
# test_context: S. cerevisiae deletion strains, growth OD, locus YKL048C, strain ELM1, active compounds read low
Hit rate of the full screen: of about 5,500 compounds, about 2,000 (36%) were called active. Another 18% or so got no clear call; they are omitted. The list shows a part of the results.
Field format: numeric only.

Worked cases, answers included:
O=S(=O)(Oc1ccc(-c2csnn2)cc1)c1ccccc1Cl    0.988
O=C(NOC(=O)c1ccccc1)c1ccccc1    0.111

Q) GET /values?readout=normalized growth&item= COc1c(Br)csc1C(=O)O/N=C(/N)c1cc(C(F)(F)F)cc(C(F)(F)F)c1
A) 1.01

Q) GET /values?readout=normalized growth&item= OC(COc1ccc(F)cc1)(c1ccc(Cl)cc1)c1ccc(Cl)cc1
A) 0.984

Q) GET /values?readout=normalized growth&item= CC(=O)c1ccc(Cl)c(N=Cc2cc(Cl)cc(Cl)c2O)c1
A) 0.441

Q) GET /values?readout=normalized growth&item= Clc1ccc(SCc2ccsc2-c2ncns2)cc1
A) 0.971

Q) GET /values?readout=normalized growth&item= CC(C)(C)c1cc(C(=O)NNc2cccc(Cl)c2)n(Cc2ccccc2)n1
A) 0.889

----------
# measurement_notes: chemical genetic growth profiling, strain panel (AID 1159580);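 also: tested at 20 µM; growth read once vehicle control cultures reached saturation at 30 °C; 1 = growth at the plate median or of vehicle wells; lower values mean less growth of the strain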
# test_context: S. cerevisiae deletion strains, growth OD, locus YPR163C, strain tif3
The whole screen tested about 5,500 compounds, of which about 2,000 (36%) were called active. Roughly 18% stayed inconclusive and do not appear here. Rule as the data show it: active = normalized growth mostly below about 0.91 (no sharp cut-off); inconclusive = no clear call, values can overlap the other calls; inactive = mostly above about 0.92. The list shows a part of the results.
The categories you may choose from are Y (active), N (inactive)

CC(=O)OCC(=O)[C@@]1(O)[C@H](C)CC2C3CCC4=CC(=O)C=C[C@]4(C)[C@@]3(F)[C@@H](O)C[C@@]21C (some centres not stated)    N
CN(C)CCCN1c2ccccc2CCc2ccc(Cl)cc21    Y
CN(C)CCCN1c2ccccc2Sc2ccc(Cl)cc21    N

Q) Hi, do you know how NC(Cn1ccc(=O)c(O)c1)C(=O)O (configuration not stated) came out in this test?
A) N

Q) Hi, do you know how CC(C)CC(NC(=O)OCC1c2ccccc2-c2ccccc21)C(=O)O (configuration not stated) came out in this test?
A) N

Q) Hi, do you know how C=C1c2c(Cl)ccc(O)c2C(O)=C2C(=O)[C@]3(O)C(O)=C(C(N)=O)C(=O)[C@@H](N(C)C)[C@@H]3[C@@H](O)[C@H]12 came out in this test?
A) N

Q) Hi, do you know how CC12CCC(=O)C=C1CCC1C2[C@@H](O)CC2(C)C1CC[C@]2(O)C(=O)COP(=O)(O)O (some centres not stated) came out in this test?
A) N

Q) Hi, do you know how CN(C)[C@@H]1C(=O)C(C(N)=O)=C(O)[C@@]2(O)C(=O)C3=C(O)c4c(O)cccc4[C@@](C)(O)[C@H]3[C@H](O)[C@@H]12 came out in this test?
A) N

Q) Hi, do you know how CC(=O)N[C@@H](Cc1c[nH]c2ccccc12)C(N)=O came out in this test?
A) N

Q) Hi, do you know how NCCCCCCNS(=O)(=O)c1cccc2c(Cl)cccc12 came out in this test?
A) N

Q) Hi, do you know how C[C@H](CCC(=O)O)[C@H]1CCC2C3C(=O)CC4CC(=O)CC[C@]4(C)C3CC(=O)[C@@]21C (some centres not stated) came out in this test?
A) N

Q) Hi, do you know how COc1ccc(C2Sc3ccccc3N(CCN(C)C)C(=O)C2OC(C)=O)cc1 (configuration not stated) came out in this test?
A) N

Q) Hi, do you know how C/C1=C\CC(C)(C)/C=C/CC2(C)OC2CC1 (configuration not stated) came out in this test?
A) N

Q) Hi, do you know how COc1ccc([C@@H]2CC(=O)c3c(O)cc(O[C@@H]4O[C@H](CO[C@H]5O[C@@H](C)[C@H](O)[C@@H](O)[C@H]5O)[C@@H](O)[C@H](O)[C@H]4O)cc3O2)cc1O came out in this test?
A) N

Q) Hi, do you know how C/C1=C/CC(C)(C)/C=C/C/C(C)=C/CC1 came out in this test?
A) N

Q) Hi, do you know how NC1=NCCN1CC(=O)O came out in this test?
A) N

Q) Hi, do you know how CN(C)CCCN1c2ccccc2Sc2ccc(C(F)(F)F)cc21 came out in this test?
A) N

Q) Hi, do you know how COc1ccc2cc(CCC(C)=O)ccc2c1 came out in this test?
A) N

Q) Hi, do you know how O=C(O)C1=CCCNC1 came out in this test?
A) N

Q) Hi, do you know how Cc1cc(=O)[nH]c(=S)[nH]1 came out in this test?
A) N

Q) Hi, do you know how CN(C)CCCN1c2ccccc2Sc2ccccc21 came out in this test?
A) N

Q) Hi, do you know how CNCCCC12CCC(c3ccccc31)c1ccccc12 came out in this test?
A) N
